I'd appreciate it if you could supply Post-emergence action against DIGSA in % values for the items below.
# Tested on: DIGSA
# Assay Summary: Post-emergence herbicidal action against DIGSA
# Format: in vivo, Digitaria sanguinalis
# Test Context: 80 g/ha, visual assessment about 3 weeks after treatment vs untreated controls
Numbers only, in %.

I need Post-emergence action against DIGSA in % for every entry listed below, if you could help.
1. CC#Cc1cc(Cl)c(C2=C(OC(=O)OCC)C3(CCC(COC)C3)NC2=O)c(CC)c1 (stereo not shown) [Example P-15]
2. CC#Cc1cc(Br)c(C2=C(OC(=O)C(C)C)C3(CCC(COC)C3)NC2=O)c(OC)c1 (stereo not shown) [Example P-04]
3. CC#Cc1cc(C)c(C2=C(OC(=O)OCC)C3(CCC(COCC)C3)NC2=O)c(OC)c1 (stereo not shown) [Example P-49]
4. CC#Cc1cc(C)c(C2=C(OC(=O)OCC)C3(CCC(COCC)C3)NC2=O)c(OC)c1 (stereo not shown) [Example P-48]

A:
[100, 100, 90, 100]

====

# Test system: VIOTR
# Assay Summary: Pre-emergence herbicidal action against VIOTR
# Type: in vivo, Viola tricolor
# Test Context: 320 g/ha
Reported Endpoint: Pre-emergence action against VIOTR in % (%)
Answers are plain numbers, in %.

Worked cases, Pre-emergence action against VIOTR in % given:
[
  {
    "Compound": "CC#Cc1cc(C)c(C2=C(OC(=O)OCC)C3(CCC(COCC)C3)NC2=O)c(OC)c1 (centres unmarked) [Example P-48]",
    "Unit String": "%",
    "Number": 100
  },
  {
    "Compound": "CC#Cc1cc(C)c(C2=C(OC(=O)OCC)C3(CCC(COCCC)C3)NC2=O)c(Cl)c1 (centres unmarked) [Example P-86]",
    "Unit String": "%",
    "Number": 100
  },
  {
    "Compound": "C=CCOCC1CCC2(C1)NC(=O)C(c1c(C)cc(C#CC)cc1Cl)=C2O (centres unmarked) [Example I-46]",
    "Unit String": "%",
    "Number": 100
  },
  {
    "Compound": "CC#Cc1cc(C)c(C2=C(O)C3(CCC(COCC)C3)NC2=O)c(OC)c1 (centres unmarked) [Example I-32]",
    "Unit String": "%",
    "Number": 100
  },
  {
    "Compound": "CC#Cc1cc(C)c(C2=C(O)C3(CCC(COCCC)C3)NC2=O)c(Cl)c1 (centres unmarked) [Example I-71]",
    "Unit String": "%",
    "Number": 100
  },
  {
    "Compound": "C#CCOCC1CCC2(C1)NC(=O)C(c1c(C)cc(C#CC)cc1OC)=C2OC(=O)OCC (centres unmarked) [Example P-101]",
    "Unit String": "%",
    "Number": 80
  },
  {
    "Compound": "CC#Cc1cc(Br)c(C2=C(O)C3(CCC(COC)C3)NC2=O)c(OCC)c1 (centres unmarked) [Example I-69]",
    "Unit String": "%",
    "Number": 90
  }
]

Q: Give the value of Pre-emergence action against VIOTR in % reported for the following: CC#Cc1cc(F)c(C2=C(O)C3(CCC(COCC)C3)NC2=O)c(OC)c1 (centres unmarked) [Example I-42]
A: 80

Cited source: patent US20220386606A1
